# Assay target: human CYP11B1 (Homo sapiens)
# Protocol details: G-402 cellular enzyme assay, human CYP11B1 (cortisol release, HTRF)
# Applied conditions: G-402 cells, 1 μM Deoxycortisol
Quantity name: EC50 (µM)

# annotated cases, reported EC50 shown
> print(dat)
                                   compound  units.label  result.number
1  CC(NS(C)(=O)=O)c1cncc(N2CCc3cc(Cl)ccc3C2=O)c1 (centres unmarked)           µM           2.03
2  O=C1c2ccc(Cl)cc2CCN1c1cncc(Cc2c(Cl)cccc2Cl)c1           µM            0.3
3  CCC(=O)N[C@H]1CCc2c1cncc2N1C(=O)c2ccc(Cl)cc2[C@@H]1C (single isomer, unassigned)           µM           14.6
4  O=C1CCCCN1Cc1cncc(N2Cc3cc(Cl)ccc3C2=O)c1           µM           12.8
5  Cn1ccnc1C(=O)NCc1cncc(N2C(=O)c3ccc(Cl)cc3C2(C)C)c1           µM           1.45
6           O=C1c2ccc(Cl)cc2CCN1c1cncc(F)c1           µM           4.27
7  CC[C@@H]1c2cc(Cl)ccc2C(=O)N1c1cncc2c1CCC[C@@H]2NS(C)(=O)=O (single isomer, unassigned)           µM           15.1
8  Cc1nc2ccccc2n1Cc1cncc(N2CCc3cc(Cl)ccc3C2=O)c1           µM           1.97

[I] CCC(=O)N[C@H]1CCCc2c1cncc2N1C(=O)c2ccc(Cl)cc2[C@H]1CC (single isomer, unassigned)
[II] O=C1c2ccc(Cl)cc2CCN1c1cncc(NCc2ccc(F)cc2)c1
[III] CCC(=O)NC1CCc2c1cncc2N1Cc2cc(Cl)ccc2C1=O (single isomer, unassigned)
-- ask Your job: order these 3 records by EC50, ascending. Return value: ordered labels per request.
-- reply II, III, I
(II: 0.343 µM, III: 7.99 µM, I: 39.4 µM)

[I] O=C1c2ccc(Cl)cc2CCN1c1cncc(CNc2cccc(Cl)c2)c1
[II] CCC1c2cc(Cl)ccc2C(=O)N1c1cncc(C(C)O)c1 (centres unmarked)
[III] CCC1c2cc(Cl)ccc2C(=O)N1c1cncc(F)c1 (single isomer, unassigned) [Example 310]
-- ask Your job: order these 3 records by EC50, ascending. Return value: ordered labels per request.
-- reply I, II, III

###

# Assay target: human CYP11B2 (Homo sapiens)
# Sequence (P19099 25-503): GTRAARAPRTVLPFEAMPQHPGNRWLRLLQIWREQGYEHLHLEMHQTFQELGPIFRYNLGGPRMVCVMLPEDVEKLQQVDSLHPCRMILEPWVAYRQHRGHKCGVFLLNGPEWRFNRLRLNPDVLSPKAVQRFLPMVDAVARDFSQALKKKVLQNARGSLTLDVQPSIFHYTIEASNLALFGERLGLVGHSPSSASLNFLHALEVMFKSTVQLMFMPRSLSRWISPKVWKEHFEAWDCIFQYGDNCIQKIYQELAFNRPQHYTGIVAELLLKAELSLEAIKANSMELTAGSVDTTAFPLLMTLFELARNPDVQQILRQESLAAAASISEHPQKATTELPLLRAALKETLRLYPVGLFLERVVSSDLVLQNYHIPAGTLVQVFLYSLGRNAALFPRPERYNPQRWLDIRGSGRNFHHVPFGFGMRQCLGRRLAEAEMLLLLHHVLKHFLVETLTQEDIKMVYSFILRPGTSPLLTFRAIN
# Protocol details: G-402 cellular enzyme assay, human CYP11B2 (aldosterone release, HTRF)
# Applied conditions: G-402 cells, 1 μM Deoxycorticosterone
pEC50: −log10 of the molar value.
Quantity name: pEC50

# annotated cases, reported pEC50 shown
> print(dat)
                                   molecule  result.number
1  COC(C)c1ccncc1N1CCc2cc(Cl)ccc2C1=O (stereo not drawn)           6.90
2  CC1(C)c2cc(Cl)ccc2C(=O)N1c1cncc(N2CC[C@H](O)C2)c1           8.18
3  O=C1c2ccc(Cl)cc2CCN1c1cncc(-c2cccc(F)c2)c1           7.63

[I] CCC(=O)NCc1cncc(N2C(=O)c3ccc(Cl)cc3C2CC)c1 (single isomer, unassigned)
[II] O=C1c2ccc(Cl)cc2CCN1c1cncc(CN2CCCC(F)(F)C2)c1
-- ask Task for the reader: decide whether I or II has the larger pEC50. Field: selected label. Fill in the label of the entry you choose.
-- reply II

[P] O=C1c2ccc(Cl)cc2CCN1c1cncc(-c2cc(F)ccc2F)c1
[Q] COc1ccc2c(n1)CCN(c1cccnc1)C2=O
[R] Cn1nccc1-c1cncc(N2CCc3cc(Cl)ccc3C2=O)c1Cl
-- ask Your job: order these 3 records by pEC50, ascending. Return value: ordered labels per request.
-- reply Q, P, R

###

# Assay target: human CYP11B1 (Homo sapiens)
# Protocol details: G-402 cellular enzyme assay, human CYP11B1 (cortisol release, HTRF)
# Applied conditions: G-402 cells, 1 μM Deoxycortisol
Quantity name: EC50 (µM)

# annotated cases, reported EC50 shown
> print(dat)
                                   compound                  assay.target  result.number
1  O=C1c2ccc(Cl)cc2CCN1c1cncc(C2CC2)c1 [Example 66]  human CYP11B1 (Homo sapiens)         0.0697
2  CC(=O)N1CC(Oc2cncc(N3C(=O)c4ccc(Cl)cc4C3(C)C)c2)C1 [Example 450]  human CYP11B1 (Homo sapiens)           20.1

[A] CC(=O)NC1CCCc2c1cncc2N1CCc2cc(Cl)ccc2C1=O (single isomer, unassigned) [Example 321]
[B] Cc1cnn(Cc2cncc(N3CCc4cc(Cl)ccc4C3=O)c2)c1 [Example 187]
-- ask Task for the reader: decide whether A or B has the larger EC50. Field: selected label. Fill in the label of the entry you choose.
-- reply A
(A: 3.99 µM, B: 2.23 µM)

###

# Assay target: human CYP11B1 (Homo sapiens, UniProt P15538)
# Construct: expressed in transfected cells
# Protocol details: G-402 cellular enzyme assay, human CYP11B1 (cortisol release, HTRF)
# Type: cell-based
# Applied conditions: G-402 cells, 1 μM Deoxycortisol
# From the text: Herein we identified the use of the G-402 cell line as a host cell to ectopically express (transiently or stably) enzymes of the CYP11 family. […] Importantly the identified cell line G-402 expresses co-factors (adrenodoxin and adrenodoxin reductase) important for the activity of the CYP11 family and no relevant enzyme activity of the CYP11 family (in comparison to H295R cells) was detected in these cells. […]
pEC50: −log10 of the molar value.
Quantity name: pEC50

> print(dat)
                                   compound  quantity.name  result.number
1  CC(=O)NC1CCCc2c1cncc2N1C(=O)c2ccc(Cl)cc2C1(C)C (single isomer, unassigned) [Example 466]          pEC50           4.67
2  CS(=O)(=O)NCc1cncc(N2CCc3cc(Cl)ccc3C2=O)c1 [Example 152]          pEC50           4.94
3  Cn1nccc1-c1cncc(N2C(=O)c3ccc(Cl)nc3C2(C)C)c1 [Example 425]          pEC50           5.90
4  O=C1c2ccc(Cl)cc2CCN1c1cncc(-c2cccc(Cl)c2)c1 [Example 234]          pEC50           5.80
5  COC(c1ccncc1N1CCc2cc(Cl)ccc2C1=O)C1CC1 (centres unmarked) [Example 78]          pEC50           5.84
6  O=C1c2ccc(Cl)cc2CCN1c1cnccc1Cl [Example 6]          pEC50           5.92

[a] CC1(C)c2cc(Cl)ccc2C(=O)N1c1cncc(CO)c1 [Example 133]
[b] CC[C@@H]1c2cc(Cl)ccc2C(=O)N1c1cncc2c1CC[C@@H]2NS(C)(=O)=O (single isomer, unassigned) [Example 367]
-- ask Would you mind telling me which has the lower recorded pEC50 between a and b ? Field: selected label. Fill in the label of the entry you choose.
-- reply b

###

# Assay target: human CYP11B1 (Homo sapiens, UniProt P15538)
# Sequence (P15538 25-503): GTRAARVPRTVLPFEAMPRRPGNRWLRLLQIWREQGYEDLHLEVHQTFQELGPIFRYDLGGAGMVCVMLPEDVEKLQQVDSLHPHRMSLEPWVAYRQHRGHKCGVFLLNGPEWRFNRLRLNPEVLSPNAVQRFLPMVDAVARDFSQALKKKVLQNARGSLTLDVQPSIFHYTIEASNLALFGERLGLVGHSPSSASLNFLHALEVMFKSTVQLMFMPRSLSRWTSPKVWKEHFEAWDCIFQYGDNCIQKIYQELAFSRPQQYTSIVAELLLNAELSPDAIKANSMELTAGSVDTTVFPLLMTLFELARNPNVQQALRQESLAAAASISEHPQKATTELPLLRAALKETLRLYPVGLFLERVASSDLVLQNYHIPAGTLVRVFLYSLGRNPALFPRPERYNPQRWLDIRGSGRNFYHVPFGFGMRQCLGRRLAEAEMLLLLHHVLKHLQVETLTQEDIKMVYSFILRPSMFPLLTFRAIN
# Protocol details: G-402 cellular enzyme assay, human CYP11B1 (cortisol release, HTRF)
# Applied conditions: G-402 cells, 1 μM Deoxycortisol
pEC50: −log10 of the molar value.
Quantity name: pEC50

# annotated cases, reported pEC50 shown
> print(dat)
                                   compound  result.number
1  NC(=O)COc1cncc(N2CCc3cc(Cl)ccc3C2=O)c1 [Example 253]           5.00
2  CCS(=O)(=O)Nc1cccc2c(N3CCc4cc(Cl)ccc4C3=O)cncc12 [Example 289]           6.73
3  O=C1c2ccc(Cl)cc2CCN1c1cncc(OC2CC2)c1 [Example 68]           6.81
4  CC1(C)c2ccc(Cl)cc2C(=O)N1c1cncc(CNS(C)(=O)=O)c1 [Example 408]           4.85

[1] CC(=O)N1CCC(Oc2cncc(N3C(=O)c4ccc(Cl)cc4C3(C)C)c2)CC1 [Example 449]
[2] N#Cc1cncc(N2CCc3cc(Cl)ccc3C2=O)c1 [Example 2]
[3] O=C1c2ccc(Cl)cc2CCN1c1cncc(CNc2cccc(F)c2)c1 [Example 259]
-- ask Ordering criterion: pEC50; begin with the maximum. Return value: ordered labels per request.
-- reply 3, 1, 2

[P] CN1CCN(Cc2cncc(N3C(=O)c4ccc(Cl)cc4C3(C)C)c2)C1=O [Example 414]
[Q] O=C1c2ccc(Cl)cc2CCN1c1cncc2c1CCCC2O (stereo not drawn) [Example 28]
-- ask Task for the reader: decide whether P or Q has the larger pEC50. Field: selected label. Fill in the label of the entry you choose.
-- reply Q
